- Experimental System: MAP1LC3B ATG8 (2–119) (human, UniProt Q9GZQ8 2-119)
- Experiment Summary: fluorescence polarisation
* marks the point of attachment. FITC = O=C1OC2(c3ccc(O)cc3Oc3cc(O)ccc32)c2ccc(NC(=S)*)cc21
Measurement Label: Kd
Please answer using the number first and the unit second.

Input {FITC}-DDDWTHLSSK-NH2 [FITC-labeled SQSTM1(335–344) probe peptide] . Output Kd: 1900 nM
